- EXPERIMENTAL_TARGET: T1, endogenous GLP-1 receptor of a murine insulinoma cell line (murine, UniProt O35659 22-463)
- T1 sequence (looked up): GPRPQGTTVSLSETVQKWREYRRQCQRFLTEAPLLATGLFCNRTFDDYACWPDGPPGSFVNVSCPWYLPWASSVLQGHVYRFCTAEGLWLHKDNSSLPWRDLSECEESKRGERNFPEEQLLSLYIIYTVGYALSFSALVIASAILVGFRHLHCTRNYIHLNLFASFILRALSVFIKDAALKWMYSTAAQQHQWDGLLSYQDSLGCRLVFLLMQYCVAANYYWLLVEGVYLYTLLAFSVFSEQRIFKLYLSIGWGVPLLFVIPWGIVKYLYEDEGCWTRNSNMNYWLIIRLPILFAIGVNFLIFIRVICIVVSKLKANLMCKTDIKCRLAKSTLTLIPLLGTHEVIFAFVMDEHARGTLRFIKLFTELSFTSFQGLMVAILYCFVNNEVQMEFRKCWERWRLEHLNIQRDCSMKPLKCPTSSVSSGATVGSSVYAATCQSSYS
- PROTOCOL_DESCRIPTION: cell-based or functional assay
*1 amine or outer side, *2 acyl side, *3 side chain or, on linkers, in order; H or OH if unused. Side-chain parts run from the residue outwards. [ ]: non-standard residue; d: D form. The star is where a group is joined. C18 diacid = O=C(O)CCCCCCCCCCCCCCCCC(=O)*; γGlu = O=C(O)[C@H](CCC(=O)[*:2])N[*:1]; Ac4c = NC1(C(=O)O)CCC1; Aib = CC(C)(N)C(=O)O
Listed here are binders together with their documented EC50 [nM] (cAMP in a murine insulinoma cell line).
Write down the numeric answer in nM and omit the unit.

These recorded examples may help you get a feel for the data.
BINDER	VALUE_UNIT	OBSERVED_MEASUREMENT
HXQGTFTSDYSKYLDERAAKDFIKWLESA (Aib at position 2; Lys 24 side chain conjugated to [17-carboxy-heptadecanoyl]-isoGlu-GSGSGG; C-terminal amide) [H-H-Aib-QGTFTSDYSKYLDERAAKDFI-K([17-carboxy-heptadecanoyl]-isoGlu-GSGSGG)-WLESA-NH2]	nM	0.15
H-H[Ac4c]QGTFTSDYSKYLDEK([Peg3-Peg3-γGlu-C18 diacid])RAKDFIEWLESA-NH2 [H-H-Ac4c-QGTFTSDYSKYLDE-K([17-carboxy-heptadecanoyl]-isoGlu-Peg3-Peg3)-RAKDFIEWLESA-NH2]	nM	0.4
HXQGTFTSDYSKYLDEKAAKDFIEWLESA (Aib at position 2; Lys 17 side chain conjugated to [17-carboxy-heptadecanoyl]-isoGlu; C-terminal amide) [H-H-Aib-QGTFTSDYSKYLDE-K([17-carboxy-heptadecanoyl]-isoGlu)-AAKDFIEWLESA-NH2]	nM	0.6
HXQGTFTSDYSKYLDERRAKDFIEWLEKA (Ac4c at position 2; Lys 28 side chain conjugated to [17-carboxy-heptadecanoyl]-isoGlu-GSGSGG; C-terminal amide) [H-H-Ac4c-QGTFTSDYSKYLDERRAKDFIEWLE-K([17-carboxy-heptadecanoyl]-isoGlu-GSGSGG)-A-NH2]	nM	0.34
HXQGTFTSDYSKYLDKRAAKDFIEWLESA (Aib at position 2; Lys 16 side chain conjugated to [17-carboxy-heptadecanoyl]-isoGlu-GSGSGG; C-terminal amide) [H-H-Aib-QGTFTSDYSKYLD-K([17-carboxy-heptadecanoyl]-isoGlu-GSGSGG)-RAAKDFIEWLESA-NH2]	nM	0.65

## Input Supply EC50 [nM] (cAMP in a murine insulinoma cell line) value. Item: H-H[Aib]QGTFTSDYSKYLEK([Peg3-Peg3-γGlu-C18 diacid])RAAHDFIEWLESA-NH2 [H-H-Aib-QGTFTSDYSKYLE-K([17-carboxy-heptadecanoyl]-isoGlu-Peg3-Peg3)-RAAHDFIEWLESA-NH2]
## Output 0.36
